Assay: in vitro
Conditions: Nanoclick permeability assay EC50
Positions of bridges follow the written chain, without caps; N, C: chain ends. Non-standard residues stand in square brackets, D forms with d. Residues, ends and D or L forms follow the SMILES beside them. Lys(N3) = [N-]=[N+]=NCCCC[C@H](N)C(=O)O; R8 = C=CCCCCCC[C@@](C)(N)C(=O)O; Cba = N[C@@H](CC1CCC1)C(=O)O; S5 = C=CCCC[C@](C)(N)C(=O)O; βAla = NCCC(=O)O; Sar = CNCC(=O)O
MEASURED METRIC: cell entry EC50
Please answer using a numeric value trailed by its unit.

Answered cases to consult:
MOLECULE: CC(=O)N[C@@H](CCCCN=[N+]=[N-])C(=O)NCCC(=O)N[C@@H](CC(C)C)C(=O)N[C@H](C(=O)N[C@@H](Cc1ccccc1)C(=O)N[C@]1(C)CCCCCCC=CCCC[C@@](C)(C(=O)N[C@@H](CO)C(=O)N[C@@H](C)C(=O)N[C@@H](C)C(N)=O)NC(=O)[C@H](CC2CCC2)NC(=O)[C@@H](C)NC(=O)[C@H](C)NC(=O)[C@H](Cc2c[nH]c3ccccc23)NC(=O)[C@H](Cc2ccc(O)cc2)NC(=O)[C@H](CCC(=O)O)NC1=O)[C@@H](C)O [MP-474] (Ac-[Lys(N3)][βAla]LTF[R8]EYWA[dA][Cba][S5]SAA-NH2; staple 6-13)
OBSERVED MEASUREMENT: 148 nM
//
MOLECULE: CC(=O)N[C@@H](CCCCN=[N+]=[N-])C(=O)NCCC(=O)N[C@@H](CC(C)C)C(=O)N[C@H](C(=O)N[C@@H](Cc1ccccc1)C(=O)N[C@]1(C)CCCCCCC=CCCC[C@@](C)(C(=O)N[C@@H](CO)C(=O)N[C@@H](C)C(=O)N[C@@H](C)C(N)=O)NC(=O)[C@H](CC2CCC2)NC(=O)[C@H](CCC(N)=O)NC(=O)[C@H](C)NC(=O)[C@H](Cc2c[nH]c3ccccc23)NC(=O)[C@H](CCC(=O)O)NC(=O)[C@H](CCC(=O)O)NC1=O)[C@@H](C)O [MP-842]
OBSERVED MEASUREMENT: 297 nM
//
MOLECULE: CC(=O)N[C@@H](CCCCN=[N+]=[N-])C(=O)NCCC(=O)N[C@@H](CC(C)C)C(=O)N[C@H](C(=O)N[C@@H](Cc1ccccc1)C(=O)N[C@]1(C)CCCCCCC=CCCC[C@@](C)(C(=O)N[C@@H](CO)C(=O)N[C@@H](C)C(=O)N(C)CC(N)=O)NC(=O)[C@H](CC2CCC2)NC(=O)[C@H](CCC(N)=O)NC(=O)[C@H](C)NC(=O)[C@H](Cc2c[nH]c3ccccc23)NC(=O)[C@H](Cc2ccc(O)cc2)NC(=O)[C@H](CCC(=O)O)NC1=O)[C@@H](C)O [MP-566] (Ac-[Lys(N3)][βAla]LTF[R8]EYWAQ[Cba][S5]SA[Sar]-NH2; staple 6-13)
OBSERVED MEASUREMENT: 132 nM
//
MOLECULE: CC(=O)N[C@@H](CCCCN=[N+]=[N-])C(=O)NCCC(=O)N[C@@H](CC(C)C)C(=O)N(C)[C@H](C(=O)N[C@@H](Cc1ccccc1)C(=O)N[C@]1(C)CCCCCCC=CCCC[C@@](C)(C(=O)N[C@@H](CO)C(=O)N[C@@H](C)C(=O)N[C@@H](C)C(N)=O)NC(=O)[C@H](CC2CCC2)NC(=O)[C@H](CCC(N)=O)NC(=O)[C@H](C)NC(=O)[C@H](Cc2c[nH]c3ccccc23)NC(=O)[C@H](Cc2ccc(O)cc2)NC(=O)[C@H](CCC(=O)O)NC1=O)[C@@H](C)O [MP-190]
OBSERVED MEASUREMENT: 420 nM

Then this molecule:
Endpoint output: cell entry EC50 of CC(=O)N[C@@H](CCCCN=[N+]=[N-])C(=O)NCCC(=O)N[C@@H](CC(C)C)C(=O)N[C@@H](CCCNC(=N)N)C(=O)N[C@@H](Cc1ccccc1)C(=O)N[C@]1(C)CCCCCCC=CCCC[C@@](C)(C(=O)N[C@@H](CO)C(=O)N[C@@H](C)C(=O)N[C@@H](C)C(N)=O)NC(=O)[C@H](CC2CCC2)NC(=O)[C@H](CCC(N)=O)NC(=O)[C@H](C)NC(=O)[C@H](Cc2c[nH]c3ccccc23)NC(=O)[C@H](Cc2ccc(O)cc2)NC(=O)[C@H](CCC(=O)O)NC1=O [MP-553] (Ac-[Lys(N3)][βAla]LRF[R8]EYWAQ[Cba][S5]SAA-NH2; staple 6-13) . Value? 174 nM

Values compiled from paper PMC10786919.
